Where do these numbers come from? They come from patent US9409905B2.

test system: E. coli ELZ4251; assay: Antibacterial activity, MIC, multi-drug resistant clinical isolate (Table 3); assay type: cell-based; settings: Escherichia coli
MEASURED QUANTITY: MIC

{"columns": ["MOLECULE", "ENDPOINT RESULT"],
 "data": [
  ["CCc1cc(C(=O)O)c(=O)[nH]c1-c1ccc2c(c1)cc(CCN(C)C)n2C [Cpd 161]", "12.5 to 150 µg/mL"],
  ["CCc1c(-c2ccc3c(c2)cc(CN2CCC(OC)C2)n3C)[nH]c(=O)c(C(=O)O)c1O (stereo not shown) [Cpd 179]", "3.5 to 12.5 µg/mL"],
  ["CCc1c(-c2ccc3c(c2)cc(CNCC2CCC2)n3C)[nH]c(=O)c(C(=O)O)c1O.Cl [Cpd 235]", "3.5 to 12.5 µg/mL"],
  ["CCc1c(-c2ccc3c(c2)cc(CNC2CCC2)n3C)[nH]c(=O)c(C(=O)O)c1O.Cl [Cpd 232]", "3.5 to 12.5 µg/mL"],
  ["CCc1c(-c2ccc3sccc3c2)[nH]c(=O)c(C(=O)O)c1O [Cpd 367]", "12.5 to 150 µg/mL"],
  ["CCc1cc(C(=O)O)c(=O)[nH]c1-c1ccc2c(c1)cc(CN(C)C)n2C [Cpd 122]", "12.5 to 150 µg/mL"],
  ["CCc1c(-c2ccc3c(c2)cc(CNCCN(C)C)n3C)[nH]c(=O)c(C(=O)O)c1O [Cpd 302]", "3.5 to 12.5 µg/mL"],
  ["CCc1cc(C(=O)O)c(=O)[nH]c1-c1ccc2c(c1)cc(CN1CCCC1C)n2C (stereo not shown) [Cpd 130]", "12.5 to 150 µg/mL"],
  ["CCc1c(-c2ccc3c(c2)cc(CNCC2CCOCC2)n3C)[nH]c(=O)c(C(=O)O)c1O.Cl [Cpd 227]", "12.5 to 150 µg/mL"],
  ["CCc1c(-c2ccc3c(c2)cc(CN2CCCC2CN(C)C)n3C)[nH]c(=O)c(C(=O)O)c1O (stereo not shown) [Cpd 202]", "12.5 to 150 µg/mL"],
  ["CCc1c(-c2ccc3c(c2)cc(CO)n3C)[nH]c(=O)c(C(=O)O)c1O [Cpd 40]", "3.5 to 12.5 µg/mL"],
  ["CCNCc1cc2cc(-c3[nH]c(=O)c(C(=O)O)c(O)c3CC)ccc2n1C [Cpd 165]", "1 to 3.5 µg/mL"],
  ["CCc1c(-c2ccc3c(c2)cc(CN(C)C)n3C)[nH]c(=O)c(C(=O)O)c1O [Cpd 166]", "3.5 to 12.5 µg/mL"],
  ["CCc1c(-c2ccc3c(c2)cc(CN2CCC(O)C2)n3C)[nH]c(=O)c(C(=O)O)c1O (stereo not shown) [Cpd 178]", "12.5 to 150 µg/mL"],
  ["CCc1c(-c2ccc3c(c2)cc(CN2CC(O)C2)n3C)[nH]c(=O)c(C(=O)O)c1O [Cpd 187]", "3.5 to 12.5 µg/mL"],
  ["CCc1c(-c2ccc3c(ccn3CCO)c2)[nH]c(=O)c(C(=O)O)c1O [Cpd 24]", "12.5 to 150 µg/mL"],
  ["CCc1c(-c2ccc3c(c2)cc(CN2CCCC2C)n3C)[nH]c(=O)c(C(=O)O)c1O (stereo not shown) [Cpd 173]", "3.5 to 12.5 µg/mL"],
  ["CCc1c(-c2ccc3c(c2)cc(CN2CC4CCCNC4C2)n3C)[nH]c(=O)c(C(=O)O)c1O (stereo not shown) [Cpd 184]", "3.5 to 12.5 µg/mL"],
  ["CCc1c(-c2ccc3c(c2)cc(CN2CCC(NC)C2)n3C)[nH]c(=O)c(C(=O)O)c1O (stereo not shown) [Cpd 181]", "12.5 to 150 µg/mL"],
  ["CCc1cc(C(=O)O)c(=O)[nH]c1-c1ccc2c(c1)OCCN2C [Cpd 3]", "12.5 to 150 µg/mL"],
  ["CCc1c(-c2ccc3c(c2)cc(CN(C)C2CCCC2)n3C)[nH]c(=O)c(C(=O)O)c1O.Cl [Cpd 211]", "12.5 to 150 µg/mL"],
  ["CCc1cc(C(=O)O)c(=O)[nH]c1-c1ccc2occc2c1 [Cpd 364]", "12.5 to 150 µg/mL"],
  ["CCc1cc(C(=O)O)c(=O)[nH]c1-c1ccc2c(c1)cc(C)n2C [Cpd 37]", "12.5 to 150 µg/mL"],
  ["CCc1c(-c2ccc3c(c2)cc(CN2CCC[C@H](N)C2)n3C)[nH]c(=O)c(C(=O)O)c1O [Cpd 253]", "12.5 to 150 µg/mL"],
  ["CCc1c(-c2ccc3c(c2)cc(CN(C)C2CCNCC2)n3C)[nH]c(=O)c(C(=O)O)c1O [Cpd 261]", "12.5 to 150 µg/mL"],
  ["CCc1c(-c2ccc3c(c2)cc(CNCc2ccccn2)n3C)[nH]c(=O)c(C(=O)O)c1O.Cl [Cpd 219]", "12.5 to 150 µg/mL"],
  ["CCc1c(-c2ccc3c(c2)cc(CN2CCCC(N(C)C)C2)n3C)[nH]c(=O)c(C(=O)O)c1O (stereo not shown) [Cpd 250]", "12.5 to 150 µg/mL"],
  ["CCc1c(-c2ccc3c(c2)cc(CNC)n3C)[nH]c(=O)c(C(=O)O)c1O [Cpd 203]", "1 to 3.5 µg/mL"],
  ["CCc1cc(C(=O)O)c(=O)[nH]c1-c1ccc2c(c1)cc(CCN1CCCC1)n2C [Cpd 159]", "12.5 to 150 µg/mL"],
  ["CCc1c(-c2ccc3c(c2)cc(CN2C[C@H]4CCC[C@@H](NC)[C@H]4C2)n3C)[nH]c(=O)c(C(=O)O)c1O [Cpd 282]", "3.5 to 12.5 µg/mL"],
  ["CCc1c(-c2ccc3c(c2)cc(CN(C)C2CCCNC2)n3C)[nH]c(=O)c(C(=O)O)c1O (stereo not shown) [Cpd 262]", "12.5 to 150 µg/mL"],
  ["Cc1c(-c2ccc3c(c2)cc(CN2CCC2)n3C)[nH]c(=O)c(C(=O)O)c1O [Cpd 316]", "3.5 to 12.5 µg/mL"],
  ["CCc1cc(C(=O)O)c(=O)[nH]c1-c1ccc2c(cnn2C)c1 [Cpd 41]", "12.5 to 150 µg/mL"],
  ["Cc1c(-c2ccc3c(c2)cc2n3CC(N)C2)[nH]c(=O)c(C(=O)O)c1O.Cl (stereo not shown) [Cpd 412]", "3.5 to 12.5 µg/mL"]
]}
